Recorded values, source patent US20100310640A1.

Molecular target: T1, HLA-DR DRB1*0901 (human)
T1 chain 1: not shown
T1 chain 2: not shown
Assay: radioligand inhibition, purified HLA-DR
Details: remark: other sources report otherwise
Property measured: IC50 (µM)

A = RPRFRELVSEFSRMA [Peptide 9019.0095]
B = HNQVRQVPLQRLRIV [Her/neu.88]
Which value of IC50 is greater, the one for A or the one for B ? Your answer should be the label of the entry you select.
B
(B: 6.94 µM, A: 2.32 µM)
